# experimentalSystem: AKT1 (Homo sapiens, UniProt P31749)
# Sequence (P31749 whole entry): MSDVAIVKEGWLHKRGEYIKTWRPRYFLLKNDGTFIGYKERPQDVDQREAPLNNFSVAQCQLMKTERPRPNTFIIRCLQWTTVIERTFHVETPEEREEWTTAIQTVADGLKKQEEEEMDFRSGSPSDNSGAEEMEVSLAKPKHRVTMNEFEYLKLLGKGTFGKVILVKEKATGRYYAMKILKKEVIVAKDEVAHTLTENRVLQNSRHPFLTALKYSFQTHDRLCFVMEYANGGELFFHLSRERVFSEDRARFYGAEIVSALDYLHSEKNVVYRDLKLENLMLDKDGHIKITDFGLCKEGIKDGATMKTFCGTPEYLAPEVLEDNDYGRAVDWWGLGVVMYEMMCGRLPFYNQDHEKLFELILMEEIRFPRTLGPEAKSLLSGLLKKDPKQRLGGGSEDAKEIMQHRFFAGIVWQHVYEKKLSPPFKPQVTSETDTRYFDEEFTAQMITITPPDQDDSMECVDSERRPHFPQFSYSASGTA
# testDetails: AKT Kinase Assay (IMAP fluorescent polarisation) vs AKT1
# conditionDetails: activated AKT1, FAM Crosstide substrate
pIC50: −log10 of the molar value. Counter-ions that a name gives are not always drawn.
assayEndpoint: pIC50

Solved entries:
1. NC1(c2ccc(-c3c(-c4ccccc4)oc4[nH]c(=O)ccc4c3=O)cc2)CCC1 [Example 36, hydrochloride]; 5.00 to 6.00
2. NC1(c2ccc(-c3c(-c4ccccc4)oc4cccc(F)c4c3=O)cc2)CCC1 [Example 3]; 5.00 to 6.00

Please give the measured pIC50 for this compound: COc1ccc2c(=O)c(-c3ccc(C4(N)CCC4)cc3)c(-c3ccccc3)oc2c1Br [Example 9]
≥ 6.00

Please give the measured pIC50 for this compound: NC1(c2ccc(-c3c(-c4ccccc4)oc4c(-n5ccnc5)cccc4c3=O)cc2)CCC1 [Example 74, hydrochloride]
≥ 6.00

Please give the measured pIC50 for this compound: CON=c1c(-c2ccc(C3(N)CCC3)cc2)c(-c2ccccc2)oc2ccccc12 [Example 66]
≥ 6.00

Please give the measured pIC50 for this compound: COc1cc2c(=O)c(-c3ccc(C4(N)CCC4)cc3)c(-c3ccccc3)oc2cc1-c1ccn[nH]1 [Example 28]
< 5.00

Please give the measured pIC50 for this compound: Cc1noc(C)c1-c1cccc2c(=O)c(-c3ccc(C4(N)CCC4)cc3)c(-c3ccccc3)oc12 [Example 78]
5.00 to 6.00

====

# experimentalSystem: UniProtKB Q9Y243
# testDetails: AKT Kinase Assay (IMAP fluorescent polarisation) vs AKT3
# conditionDetails: activated AKT3, FAM Crosstide substrate
Property: IC50; scope: individual compounds

Solved entries:
1. Cn1cc2c(ccc3c(=O)c(-c4ccc(C5(N)CCC5)cc4)c(-c4ccccc4)oc32)n1; 1 to 10 µM
2. NC1(c2ccc(-c3c(-c4ccccc4)oc4ccc(F)cc4c3=O)cc2)CCC1; > 10 µM

Please give the measured IC50 for this compound: Nc1ccc2c(=O)c(-c3ccc(C4(N)CCC4)cc3)c(-c3ccccc3)oc2c1O
> 10 µM

====

Property: IC50; scope: individual molecules
# experimentalSystem: AKT1 (Homo sapiens, UniProt P31749)
# testDetails: AKT Kinase Assay (IMAP fluorescent polarisation) vs AKT1
# conditionDetails: activated AKT1, FAM Crosstide substrate
Counter-ions that a name gives are not always drawn.

Solved entries:
1) N#Cc1nccc2c(=O)c(-c3ccc(C4(N)CCC4)cc3)c(-c3ccccc3)oc12 [Example 127]; ≤ 1 µM
2) NC1(c2ccc(-c3c(-c4ccccc4)oc4c(ccc5c(Cl)n[nH]c54)c3=O)cc2)CCC1 [Example 99, hydrochloride]; ≤ 1 µM
3) NC1(c2ccc(-c3c(-c4ccccc4)oc4c(-c5cccnc5)nccc4c3=O)cc2)CCC1 [Example 123, hydrochloride]; ≤ 1 µM
4) NC1(c2ccc(-c3c(-c4ccccc4)oc4c(ccc5nn[nH]c54)c3=O)cc2)CCC1 [Example 88]; ≤ 1 µM
5) COc1ccc2oc(-c3ccccc3)c(-c3ccc(C4(N)CCC4)cc3)c(=O)c2c1 [Example 5]; 1 to 10 µM

Please give the measured IC50 for this molecule: CC(C)n1ncc2ccc3c(=O)c(-c4ccc(C5(N)CCC5)cc4)c(-c4ccccc4)oc3c21 [Example 83, hydrochloride]
≤ 1 µM

Please give the measured IC50 for this molecule: NC1(c2ccc(-c3c(-c4ccccc4)oc4c(ccc5nc[nH]c54)c3=O)cc2)CCC1 [Example 45]
1 to 10 µM

Please give the measured IC50 for this molecule: NC1(c2ccc(-c3c(-c4ccccc4)oc4c(ccc5[nH]c(=O)[nH]c54)c3=O)cc2)CCC1 [Example 87]
≤ 1 µM

Please give the measured IC50 for this molecule: Cc1nc2ccc3c(=O)c(-c4ccc(C5(N)CCC5)cc4)c(-c4ccccc4)oc3c2[nH]1 [Example 89]
≤ 1 µM

Please give the measured IC50 for this molecule: NC1(c2ccc(-c3c(-c4ccccc4)oc4c(OC(F)F)nccc4c3=O)cc2)CCC1 [Example 32]
1 to 10 µM

====

Property: IC50; scope: individual compounds
# experimentalSystem: AKT3 (Homo sapiens, UniProt Q9Y243)
# Sequence (Q9Y243 whole entry): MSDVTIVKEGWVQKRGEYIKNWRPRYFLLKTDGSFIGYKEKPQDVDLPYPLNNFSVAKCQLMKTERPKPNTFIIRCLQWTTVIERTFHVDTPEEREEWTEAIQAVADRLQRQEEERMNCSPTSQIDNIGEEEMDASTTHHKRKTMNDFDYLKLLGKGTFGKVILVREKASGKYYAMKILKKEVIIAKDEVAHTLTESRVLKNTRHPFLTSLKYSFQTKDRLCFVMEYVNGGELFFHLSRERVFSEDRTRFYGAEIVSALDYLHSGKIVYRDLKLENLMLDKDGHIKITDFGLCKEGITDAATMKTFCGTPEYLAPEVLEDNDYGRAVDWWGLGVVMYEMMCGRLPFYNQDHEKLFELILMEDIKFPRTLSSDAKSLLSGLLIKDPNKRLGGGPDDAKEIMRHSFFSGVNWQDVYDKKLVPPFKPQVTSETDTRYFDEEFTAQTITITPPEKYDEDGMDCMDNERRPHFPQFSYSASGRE
# testDetails: AKT Kinase Assay (IMAP fluorescent polarisation) vs AKT3
# conditionDetails: activated AKT3, FAM Crosstide substrate

Solved entries:
1) NC1(c2ccc(-c3c(-c4ccccc4)oc4c(-c5c[nH]nn5)cccc4c3=O)cc2)CCC1; ≤ 1 µM
2) NC1(c2ccc(-c3c(-c4ccccc4)oc4cc(F)c(F)cc4c3=O)cc2)CCC1; > 10 µM

Please give the measured IC50 for this compound: COc1ccc2c(=O)c(-c3ccc(C4(N)CCC4)cc3)c(-c3ccccc3)oc2c1-c1cn[nH]c1
≤ 1 µM

Please give the measured IC50 for this compound: CON=c1c(-c2ccc(C3(N)CCC3)cc2)c(-c2ccccc2)oc2ccccc12
> 10 µM

Please give the measured IC50 for this compound: Cl.NC1(c2ccc(-c3c(-c4ccccc4)oc4c(=O)[nH]ccc4c3=O)cc2)CCC1 [Example 40, hydrochloride]
1 to 10 µM

Please give the measured IC50 for this compound: NC1(c2ccc(-c3c(-c4ccccc4)oc4c(-c5ccc(C6(N)CCC6)cc5)nccc4c3=O)cc2)CCC1
> 10 µM

Please give the measured IC50 for this compound: NC1(c2ccc(-c3c(-c4ccccc4)oc4c(ccn5c(=O)[nH]nc45)c3=O)cc2)COC1
> 10 µM

====

# experimentalSystem: AKT3 (Homo sapiens)
# Construct: purchased SignalChem
# testDetails: AKT Kinase Assay (IMAP fluorescent polarisation) vs AKT3
# Assay type: biochemical
# conditionDetails: activated AKT3, FAM Crosstide substrate
pIC50: −log10 of the molar value. Counter-ions that a name gives are not always drawn.
Property: pIC50; scope: individual compounds

Solved entries:
1) CCn1cc2ccc3c(=O)c(-c4ccc(C5(N)CCC5)cc4)c(-c4ccccc4)oc3c2n1 [Example 82, hydrochloride]; < 5.00
2) CCc1nn(C)c2c1ccc1c(=O)c(-c3ccc(C4(N)CCC4)cc3)c(-c3ccccc3)oc12 [Example 98, hydrochloride]; 5.00 to 6.00
3) COc1cc2oc(-c3ccccc3)c(-c3ccc(C4(N)CCC4)cc3)c(=O)c2cc1C; < 5.00
4) C#Cc1cccc2c(=O)c(-c3ccc(C4(N)CCC4)cc3)c(-c3ccccc3)oc12; 5.00 to 6.00
5) NC1(c2ccc(-c3c(-c4ccccc4)oc4c(-n5ccnc5)cccc4c3=O)cc2)CCC1 [Example 74, hydrochloride]; 5.00 to 6.00
6) Cn1cc2ccc3c(=O)c(-c4ccc(C5(N)CCC5)cc4)c(-c4ccccc4)oc3c2n1; 5.00 to 6.00

Please give the measured pIC50 for this compound: NC1(c2ccc(-c3c(-c4ccccc4)oc4c(cc(Cl)c5nc[nH]c54)c3=O)cc2)CCC1
≥ 6.00

Please give the measured pIC50 for this compound: NC1(c2ccc(-c3c(-c4ccccc4)oc4c(Br)cccc4c3=O)cc2)COC1
< 5.00

Please give the measured pIC50 for this compound: NC1(c2ccc(-c3c(-c4ccccc4)oc4c(-c5cn[nH]c5)nccc4c3=O)cc2)CCC1 [Example 80, hydrochloride]
≥ 6.00

Please give the measured pIC50 for this compound: NC1(c2ccc(-c3c(-c4ccccc4)oc4c5c(ccc4c3=O)NC(=O)CO5)cc2)CCC1
5.00 to 6.00

Please give the measured pIC50 for this compound: CC(C)Cn1cc(-c2nccc3c(=O)c(-c4ccc(C5(N)CCC5)cc4)c(-c4ccccc4)oc23)cn1
5.00 to 6.00

Please give the measured pIC50 for this compound: NC1(c2ccc(C3=C(c4ccccc4)c4ccccc4C3=O)cc2)CCC1 [Example 48, hydrochloride]
5.00 to 6.00

Please give the measured pIC50 for this compound: NC1(c2ccc(-c3c(-c4ccccc4)oc4c(-n5cnnc5)nccc4c3=O)cc2)CCC1 [Example 102, hydrochloride]
< 5.00

====

# experimentalSystem: AKT3 (Homo sapiens, UniProt Q9Y243)
# testDetails: AKT Kinase Assay (IMAP fluorescent polarisation) vs AKT3
# conditionDetails: activated AKT3, FAM Crosstide substrate
Where a name gives a salt, the structure may show the parent alone.
Property: IC50; scope: individual compounds

1. NC1(c2ccc(-c3c(-c4ccccc4)oc4c(Oc5ccccn5)nccc4c3=O)cc2)CCC1 [Example 103, hydrochloride]; > 10 µM
2. COc1cc2oc(-c3ccccc3)c(-c3ccc(C4(N)CCC4)cc3)c(=O)c2cc1OC; 1 to 10 µM
3. N#Cc1cccc(-c2nccc3c(=O)c(-c4ccc(C5(N)CCC5)cc4)c(-c4ccccc4)oc23)c1; > 10 µM

Please give the measured IC50 for this compound: NC1(c2ccc(-c3c(-c4ccccc4)oc4c(-c5cccnc5)cccc4c3=O)cc2)CCC1
1 to 10 µM

Please give the measured IC50 for this compound: COCCn1ccc2c(=O)c(-c3ccc(C4(N)CCC4)cc3)c(-c3ccccc3)oc2c1=O
1 to 10 µM

Please give the measured IC50 for this compound: Cn1nc(Cl)c2ccc3c(=O)c(-c4ccc(C5(N)CCC5)cc4)c(-c4ccccc4)oc3c21 [Example 100, hydrochloride]
1 to 10 µM

Please give the measured IC50 for this compound: NC1(c2ccc(-c3c(-c4ccccc4)oc4cc(OC(F)(F)F)ccc4c3=O)cc2)CCC1
> 10 µM

Please give the measured IC50 for this compound: NC1(c2ccc(-c3c(-c4ccccc4)oc4c(ccc5c(I)n[nH]c54)c3=O)cc2)CCC1 [Example 97, hydrochloride]
> 10 µM
